Hey, just so you know, these numbers are from patent US20120245137A1.

# measuredOn: Human Cav 2.2 channels (Homo sapiens, UniProt Q00975)
# assaySummary: Fluorescent assay for CaV2.2 channels using potassium depolarization (VIPR/FLIPR)
# Type: cell-based
# testConditions: FLIPR data; ratio closed/inactivated IC50
Kindly state CAv2.2 IC50 Ratio closed/inact. for each of the entries shown.
Keep the answer to the number alone.

Exercise: Indicate its recorded CAv2.2 IC50 Ratio closed/inact.; the molecule in question is CC(C)([C@H]1C[C@H](NS(=O)(=O)c2ccc(C(F)(F)F)cc2Cl)C1)S(=O)(=O)c1cc(F)cc(C(F)(F)F)c1 [Compound 623]
Key: 4.6

Exercise: Give a short answer stating reported CAv2.2 IC50 Ratio closed/inact. for CC(C)([C@H]1C[C@H](NS(=O)(=O)c2ccc(Cl)c(F)c2)C1)S(=O)(=O)c1cccc(C(F)(F)F)c1 [Compound 665] .
Key: 9.1

Exercise: Check the records and state CAv2.2 IC50 Ratio closed/inact. for CC(C)([C@H]1C[C@@H](NC(=O)CC2(N)CCCCC2)C1)S(=O)(=O)c1cccc(OC(F)(F)F)c1 [Compound 655]
Key: 5.6

Exercise: Report measured CAv2.2 IC50 Ratio closed/inact.; entry is CC(C)([C@H]1C[C@H](NC(=O)c2ccc(C(F)(F)F)cc2S(C)(=O)=O)C1)S(=O)(=O)c1cccc(OC(F)(F)F)c1 [Compound 636]
Key: 26.3

Exercise: Quick one: give measured CAv2.2 IC50 Ratio closed/inact. for CC(C)([C@H]1C[C@@H](NS(=O)(=O)c2ccc(F)c(C(F)(F)F)c2)C1)S(=O)(=O)c1cc(F)cc(C(F)(F)F)c1 [Compound 601]
Key: 7.9

Exercise: Fill in CAv2.2 IC50 Ratio closed/inact. for record CC(C)([C@H]1C[C@H](NC(=O)c2ccnc(C(F)(F)F)c2)C1)S(=O)(=O)c1cccc(C(F)(F)F)c1 [Compound 672]
Key: 23.9

Exercise: Report measured CAv2.2 IC50 Ratio closed/inact.; entry is Cn1nc(C(F)(F)F)cc1C(=O)N[C@H]1C[C@H](CC(C)(C)S(=O)(=O)c2cccc(C(F)(F)F)c2)C1 [Compound 725]
Key: 11.6

Exercise: Provide measured CAv2.2 IC50 Ratio closed/inact. value, entry: CC(C)([C@H]1C[C@H](NC(=O)c2ccc(Cl)cc2S(C)(=O)=O)C1)S(=O)(=O)c1cccc(C(F)(F)F)c1 [Compound 679]
Key: 20.8

Exercise: Complete the entry with CAv2.2 IC50 Ratio closed/inact. for CC(C)([C@H]1C[C@H](NS(=O)(=O)c2ccc(F)c(C(F)(F)F)c2)C1)S(=O)(=O)c1cccc(C(F)(F)F)c1 [Compound 667]
Key: 9.3

Exercise: Please give the documented CAv2.2 IC50 Ratio closed/inact. of CC(C)([C@H]1C[C@H](NS(=O)(=O)c2ccc(Cl)c(F)c2)C1)S(=O)(=O)c1cc(F)cc(C(F)(F)F)c1 [Compound 607]
Key: 2.6

Exercise: For the molecule CC(C)([C@H]1C[C@@H](NC(=O)c2ccc(C(F)(F)F)cc2S(C)(=O)=O)C1)S(=O)(=O)c1cc(F)cc(C(F)(F)F)c1 [Compound 585] , give its measured CAv2.2 IC50 Ratio closed/inact. value.
Key: 9.3

Exercise: Using known records, supply CAv2.2 IC50 Ratio closed/inact. for CNC1(CC(=O)N[C@H]2C[C@@H](C(C)(C)S(=O)(=O)c3cc(F)cc(C(F)(F)F)c3)C2)CCCCC1 [Compound 658]
Key: 3.8

Exercise: Please list CAv2.2 IC50 Ratio closed/inact. recorded for the molecule CC(C)([C@H]1C[C@H](Nc2ccnc(C(F)(F)F)n2)C1)S(=O)(=O)c1cccc(OC(F)(F)F)c1 [Compound 647]
Key: 4.8

Exercise: Quickly give me recorded CAv2.2 IC50 Ratio closed/inact. for CC(C)([C@H]1C[C@H](NC(=O)c2ccc(C(F)(F)F)cc2S(C)(=O)=O)C1)S(=O)(=O)c1cc(F)cc(C(F)(F)F)c1 [Compound 592]
Key: 21.7

Exercise: Read the entry CC(C)([C@H]1C[C@@H](NC(=O)c2ccc(C(F)(F)F)cc2S(C)(=O)=O)C1)S(=O)(=O)c1cccc(OC(F)(F)F)c1 [Compound 643] and write its reported CAv2.2 IC50 Ratio closed/inact..
Key: 21.3

Exercise: Please report CAv2.2 IC50 Ratio closed/inact. for the following molecule: N[C@H]1CCCCC1C(=O)NC[C@H]1C[C@H](S(=O)(=O)c2cc(F)cc(C(F)(F)F)c2)C1 (stereo partly shown) [Compound 711]
Key: 1.9

Exercise: Complete the entry with CAv2.2 IC50 Ratio closed/inact. for O=C(NC[C@H]1C[C@H](S(=O)(=O)c2cccc(C(F)(F)F)c2)C1)c1ncc(C(F)(F)F)cn1 [Compound 574]
Key: 7.8

Exercise: Find the measured CAv2.2 IC50 Ratio closed/inact. of O=C(NC[C@H]1C[C@H](S(=O)(=O)c2cccc(OC(F)(F)F)c2)C1)c1cnc(C(F)(F)F)nc1 [Compound 696] and report it.
Key: 7.5

Exercise: Give the reported CAv2.2 IC50 Ratio closed/inact. for this molecule. CNC1(CC(=O)N[C@H]2C[C@H](C(C)(C)S(=O)(=O)c3cc(F)cc(C(F)(F)F)c3)C2)CCCCC1 [Compound 659]
Key: 5

Exercise: Note CAv2.2 IC50 Ratio closed/inact. for the molecule shown: CNC1(CC(=O)N[C@H]2C[C@@H](C(C)(C)S(=O)(=O)c3cccc(C(F)(F)F)c3)C2)CCCCC1 [Compound 657]
Key: 4.3

Exercise: Hello, please tell me recorded CAv2.2 IC50 Ratio closed/inact. for this one: CC(C)(C[C@H]1C[C@H](NC(=O)c2ccc(C(F)(F)F)nc2)C1)S(=O)(=O)c1cccc(C(F)(F)F)c1 [Compound 723]
Key: 6.4

Exercise: Specify measured CAv2.2 IC50 Ratio closed/inact. for CC(C)(C1CC(CNC(=O)c2ccc(F)c(Cl)c2)C1)S(=O)(=O)c1cccc(C(F)(F)F)c1 (stereo not shown) [Compound 618] .
Key: 10.8

###

# measuredOn: UniProt Q00975
# assaySummary: Fluorescent assay for CaV2.2 channels using potassium depolarization (VIPR/FLIPR)
# Assay type: cell-based
# testConditions: FLIPR data; inactivated state; read-out: CAv2.2 IC50 Inact.
Record form. Attribute: pIC50. Fill in for each entry.
Entry type: numeric. Quantity: pIC50, the -log10 of concentration in molar units.

Exercise: Give me measured pIC50, please, for this molecule: CC(C)([C@H]1C[C@H](NS(=O)(=O)c2ccc(F)c(C(F)(F)F)c2)C1)S(=O)(=O)c1cccc(C(F)(F)F)c1
Key: 5.97

Exercise: Given CC(C)([C@H]1C[C@H](NS(=O)(=O)c2ccc(C(F)(F)F)cc2)C1)S(=O)(=O)c1cc(F)cc(C(F)(F)F)c1 , respond with its pIC50.
Key: 6.06

Exercise: Report pIC50, nothing else, for this molecule: CC(C)([C@H]1C[C@@H](NC(=O)CC2(N)CCCCC2)C1)S(=O)(=O)c1cccc(OC(F)(F)F)c1
Key: 5.94

###

# measuredOn: UniProt Q13936
# assaySummary: L-type (CAv1.2) channel blocking, FLIPR data (Table 6)
# Type: cell-based
# testConditions: inactivated state, read-out: CAv1.2 IC50 Inact.
pIC50: −log10 of the molar value.
Give pIC50 for every item shown.

Exercise: Dear colleague, please send me the reported pIC50 for CC(C)(C[C@H]1C[C@@H](NC(=O)[C@@H]2CCCC[C@@H]2N)C1)S(=O)(=O)c1cccc(C(F)(F)F)c1 [Compound 740] when you can.
Key: ≤ 5.00

Exercise: Hello, please tell me recorded pIC50 for this one: CC(C)S(=O)(=O)c1cc(C(F)(F)F)cnc1C(=O)NC[C@H]1C[C@H](S(=O)(=O)c2cccc(Cl)c2)C1 [Compound 770]
Key: ≤ 5.00

Exercise: Return pIC50 for the following molecule: O=C(NC[C@H]1C[C@H](S(=O)(=O)c2cccc(Cl)c2)C1)c1ccc(C(F)(F)F)cc1 [Compound 771]
Key: ≤ 5.00

###

# measuredOn: human α1G T-type channels (Homo sapiens)
# Sequence (O43497 whole entry): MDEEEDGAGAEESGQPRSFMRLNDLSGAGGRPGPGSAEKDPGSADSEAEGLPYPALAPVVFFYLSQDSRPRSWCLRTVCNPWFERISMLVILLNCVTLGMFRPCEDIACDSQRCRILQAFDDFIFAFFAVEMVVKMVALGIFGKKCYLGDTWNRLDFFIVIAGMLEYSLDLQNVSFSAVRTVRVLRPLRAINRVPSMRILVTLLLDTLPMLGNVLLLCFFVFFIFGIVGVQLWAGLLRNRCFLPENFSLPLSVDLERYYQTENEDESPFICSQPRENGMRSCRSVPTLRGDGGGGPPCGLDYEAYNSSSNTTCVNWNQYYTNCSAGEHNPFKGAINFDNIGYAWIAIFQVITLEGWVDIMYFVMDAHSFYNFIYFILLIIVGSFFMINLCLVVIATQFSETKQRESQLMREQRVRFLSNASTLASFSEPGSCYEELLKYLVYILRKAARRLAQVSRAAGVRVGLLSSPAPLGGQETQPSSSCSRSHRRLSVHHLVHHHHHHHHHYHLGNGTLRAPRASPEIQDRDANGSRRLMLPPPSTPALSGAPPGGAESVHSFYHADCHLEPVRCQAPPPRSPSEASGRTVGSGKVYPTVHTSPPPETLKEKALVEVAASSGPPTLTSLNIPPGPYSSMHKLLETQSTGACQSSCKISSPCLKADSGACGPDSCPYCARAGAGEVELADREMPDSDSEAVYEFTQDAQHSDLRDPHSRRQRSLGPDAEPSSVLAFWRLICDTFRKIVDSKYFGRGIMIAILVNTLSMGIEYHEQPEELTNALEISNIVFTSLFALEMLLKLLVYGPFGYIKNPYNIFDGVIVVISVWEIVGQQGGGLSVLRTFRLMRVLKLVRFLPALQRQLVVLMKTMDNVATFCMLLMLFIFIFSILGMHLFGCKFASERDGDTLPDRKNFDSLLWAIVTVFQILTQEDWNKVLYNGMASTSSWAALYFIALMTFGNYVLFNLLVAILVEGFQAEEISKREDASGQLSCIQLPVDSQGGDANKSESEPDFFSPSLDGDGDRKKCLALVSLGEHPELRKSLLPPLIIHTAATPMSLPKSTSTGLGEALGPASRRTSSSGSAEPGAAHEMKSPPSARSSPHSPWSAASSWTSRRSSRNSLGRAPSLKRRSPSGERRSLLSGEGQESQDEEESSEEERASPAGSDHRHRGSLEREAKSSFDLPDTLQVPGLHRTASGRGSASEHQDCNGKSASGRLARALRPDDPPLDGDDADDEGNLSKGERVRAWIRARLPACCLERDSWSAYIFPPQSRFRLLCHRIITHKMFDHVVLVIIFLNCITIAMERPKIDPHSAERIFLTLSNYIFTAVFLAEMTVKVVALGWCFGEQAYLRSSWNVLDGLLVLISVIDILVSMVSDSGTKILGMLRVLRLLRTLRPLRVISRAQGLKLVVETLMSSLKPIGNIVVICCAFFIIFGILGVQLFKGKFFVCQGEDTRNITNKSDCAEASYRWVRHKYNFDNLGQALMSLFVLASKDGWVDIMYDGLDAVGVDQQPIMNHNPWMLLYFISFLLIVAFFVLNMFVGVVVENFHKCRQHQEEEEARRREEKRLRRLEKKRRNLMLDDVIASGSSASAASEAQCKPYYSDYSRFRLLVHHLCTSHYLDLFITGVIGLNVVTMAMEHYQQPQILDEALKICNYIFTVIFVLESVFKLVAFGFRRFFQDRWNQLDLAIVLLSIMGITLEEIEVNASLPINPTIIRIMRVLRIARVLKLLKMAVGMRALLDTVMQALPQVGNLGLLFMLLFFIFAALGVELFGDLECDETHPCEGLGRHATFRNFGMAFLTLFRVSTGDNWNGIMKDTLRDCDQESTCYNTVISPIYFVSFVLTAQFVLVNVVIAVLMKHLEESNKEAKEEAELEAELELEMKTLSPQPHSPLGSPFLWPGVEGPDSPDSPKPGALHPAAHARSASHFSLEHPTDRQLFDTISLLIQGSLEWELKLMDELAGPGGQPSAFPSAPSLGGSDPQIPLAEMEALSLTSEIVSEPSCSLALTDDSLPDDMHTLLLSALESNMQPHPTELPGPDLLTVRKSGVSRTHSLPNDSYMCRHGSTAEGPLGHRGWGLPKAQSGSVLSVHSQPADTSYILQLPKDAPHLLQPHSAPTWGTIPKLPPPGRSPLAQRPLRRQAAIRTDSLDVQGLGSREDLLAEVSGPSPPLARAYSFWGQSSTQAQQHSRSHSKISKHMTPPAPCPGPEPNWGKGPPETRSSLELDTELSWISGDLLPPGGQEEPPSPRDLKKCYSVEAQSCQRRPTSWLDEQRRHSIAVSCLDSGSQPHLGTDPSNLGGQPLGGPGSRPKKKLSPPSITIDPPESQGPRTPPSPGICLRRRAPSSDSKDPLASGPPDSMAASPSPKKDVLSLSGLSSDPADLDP
# assaySummary: T-type calcium channel block, whole cell patch clamp, α1G
# testConditions: HEK cells stably expressing human α1G; mainly non-inactivated protocol; values above 10,000 nM represented as 10000
quantityName: IC50

Exercise: Using the record for O=C(NC1CCC(F)(S(=O)(=O)c2cccc(C(F)(F)F)c2)CC1)c1nocc1C1CC1 (centres unmarked) [Compound 272] , state its measured IC50.
Key: > 10 µM

Exercise: Let me know recorded IC50 for O=C(NC[C@H]1C[C@@H](S(=O)(=O)c2cccc(C(F)(F)F)c2)C1)c1cn2cc(C(F)(F)F)ccc2n1 [Compound 384] , thanks.
Key: > 10 µM

Exercise: Please list IC50 recorded for the compound O=C(N[C@H]1C[C@H](CS(=O)(=O)c2cccc(C(F)(F)F)c2)C1)c1cc(F)cc(Cl)c1 [Compound 344]
Key: > 10 µM

Exercise: Respond only with IC50 recorded for O=C(N[C@H]1CC[C@@](F)(S(=O)(=O)c2cccc(C(F)(F)F)c2)CC1)C1(C(F)(F)F)CC1 [Compound 275]
Key: > 10 µM

Exercise: Return IC50 for the following compound: O=C(Nc1cncc(Cl)c1)[C@H]1C[C@H](S(=O)(=O)c2cccc(C(F)(F)F)c2)C1 [Compound 419]
Key: > 10 µM

Exercise: Tell me IC50 reported for O=C(NC1CCC(S(=O)(=O)c2cccc(C(F)(F)F)c2)CC1)c1ccc(C(F)(F)F)nc1 (centres unmarked) [Compound 8]
Key: > 10 µM

Exercise: Return reported IC50. Input compound: Cc1nc(C(F)(F)F)ccc1NC(=O)[C@H]1C[C@@H](S(=O)(=O)c2cccc(C(F)(F)F)c2)C1 [Compound 418]
Key: > 10 µM

Exercise: State, in one line, measured IC50 of CC(C)S(=O)(=O)c1cc(C(F)(F)F)cnc1C(=O)N[C@H]1CC[C@H](S(=O)(=O)c2cccc(C(F)(F)F)c2)CC1 [Compound 340]
Key: 9.87 µM

Exercise: Please indicate IC50 recorded for CC1(CNC(=O)c2ccc(F)c(Cl)c2)CCC(F)(S(=O)(=O)c2cccc(C(F)(F)F)c2)CC1 (centres unmarked) [Compound 153]
Key: 5.23 µM

Exercise: Output IC50 of O=C(Nc1cc(C(F)(F)F)ccn1)[C@H]1C[C@@H](S(=O)(=O)c2cccc(C(F)(F)F)c2)C1 [Compound 410]
Key: 3.49 µM

Exercise: Give recorded IC50. Cn1nc(C(F)(F)F)cc1C(=O)NCC1(C)CCC(F)(S(=O)(=O)c2cccc(C(F)(F)F)c2)CC1 (centres unmarked) [Compound 151]
Key: 2.9 µM
